# method-notes: Test Example 3: concentration of free arginine in the blood plasma on intravenous arginine
# Format: in vivo, rats
# assay-context: Sprague-Dawley, rat, plasma, iv, 150 mg/kg
reported-endpoint: concentration at 40 min (µg/mL)
Give the number; µg/mL is assumed, so skip it.

Request: Param item = N=C(N)NCCC[C@H](N)C(=O)O ; retrieve measured concentration at 40 min.
Response: 77.2

###

# method-notes: Test Example 3: concentration of free arginine in the blood plasma on intravenous arginine
# Assay type: in vivo, rats
# assay-context: Sprague-Dawley, rat, plasma, iv, 50 mg/kg
reported-endpoint: concentration at 40 min (ng/mL)
Give the number; ng/mL is assumed, so skip it.

Request: Param item = N=C(N)NCCC[C@H](N)C(=O)O ; retrieve measured concentration at 40 min.
Response: 15700

###

# method-notes: Test Example 3: concentration of free arginine in the blood plasma on intravenous arginine
# Assay type: in vivo, rats
# assay-context: Sprague-Dawley, rat, plasma, iv, 150 mg/kg
reported-endpoint: concentration at 30 min (µg/mL)
Give the number; µg/mL is assumed, so skip it.

Request: Param item = N=C(N)NCCC[C@H](N)C(=O)O ; retrieve measured concentration at 30 min.
Response: 178

###

# method-notes: Test Example 3: concentration of free arginine in the blood plasma on intravenous arginine
# Assay type: in vivo, rats
# assay-context: Sprague-Dawley, rat, plasma, iv, 150 mg/kg
reported-endpoint: concentration at 20 min
Record the result as number plus unit.

Request: Param item = N=C(N)NCCC[C@H](N)C(=O)O ; retrieve measured concentration at 20 min.
Response: 115 µg/mL

###

# method-notes: Test Example 3: concentration of free arginine in the blood plasma on intravenous arginine
# Assay type: in vivo, rats
# assay-context: Sprague-Dawley, rat, plasma, iv, 150 mg/kg
reported-endpoint: concentration at 10 min
Record the result as number plus unit.

Request: Param item = N=C(N)NCCC[C@H](N)C(=O)O [arginine] ; retrieve measured concentration at 10 min.
Response: 156 µg/mL

###

# method-notes: Test Example 3: concentration of free arginine in the blood plasma on intravenous arginine
# Format: in vivo, rats
# assay-context: Sprague-Dawley, rat, plasma, iv, 50 mg/kg
reported-endpoint: concentration at 20 min (ng/mL)
Give the number; ng/mL is assumed, so skip it.

Request: Param item = N=C(N)NCCC[C@H](N)C(=O)O [arginine] ; retrieve measured concentration at 20 min.
Response: 46100
